Biological target: T1, C57BL/6 mouse SIRP-α D1 domain (mouse (C57BL/6 strain), UniProt P97797 32-148)
T1 sequence: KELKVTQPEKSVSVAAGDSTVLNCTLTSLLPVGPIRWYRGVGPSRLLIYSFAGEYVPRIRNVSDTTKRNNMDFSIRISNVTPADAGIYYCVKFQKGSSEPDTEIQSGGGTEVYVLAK
Assay: SPR, Langmuir fit
MEASURED PROPERTY: koff (s⁻¹)
Supply the numeric figure in s⁻¹, leaving out any unit text.

See these solved cases before continuing.
S71 (scFv, V domains shown, also called clone 71) VH: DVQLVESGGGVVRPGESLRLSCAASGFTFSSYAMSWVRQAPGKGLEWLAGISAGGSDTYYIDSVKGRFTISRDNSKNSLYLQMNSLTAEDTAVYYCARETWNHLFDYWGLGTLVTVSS VL: ALTQPASVSANPGETVKITCSGGGYYSTYYGWYQQKSPGSAPVTVIHSDDKRPSDIPSRFSGSASGSAATLTITGVRVEDEAVYYCAGYDARTYINTFGAGTTLTVL = 0.00341
S23 (scFv, V domains shown, also called clone 23) VH: DVQLVESGGGVVRPGESLRLSCAASGFTFSSHAMSWVRQAPGKGLEWLAGISAGGSDTYYIDSVKGRFTISRDNSKSSLYLRMNSLTAEDTAVYYCARETWNHLFDYWGLGTLVTVSS VL: ALTQPASVSANPGETVKITCSGGDYYSTYYAWYQQKSPGSAPVTVIHSDDERPSDIPSRFSGSASGSAATLIITGVRVEDEAVYFCGGYDGRTYINTFGAGTTLTVL = 0.00132

Query binder follows.
// query koff value for entry S55 (scFv, V domains shown, also called clone 55) VH: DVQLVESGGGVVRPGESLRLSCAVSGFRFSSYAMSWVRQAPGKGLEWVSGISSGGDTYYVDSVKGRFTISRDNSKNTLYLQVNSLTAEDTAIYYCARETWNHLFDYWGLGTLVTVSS VL: ALTQPASVSANLGETVEITCSGGDSSSHYYGWYQQKSPGSAPVTVIYSDDERPSDIPSRFSGSASGSTATLTITGVRVEDEAIYYCGAYDGSTYANTFGAGTTLTVL 0.00197
